MEASUREMENT_NOTES: CHI Log D procedure
Type: physicochemical
CONDITION_DETAILS: pH 7.4
ENDPOINT: logD
Enter the number alone.

CC[C@H](C)[C@@H]1NC(=O)[C@H](CC(=O)O)NC(=O)[C@]2(CC=CCCCC3(CCCC=CCCCCCC[C@@](C)(C(=O)N[C@@H](Cc4ccccc4)C(=O)N[C@@H](Cc4csc5ccccc45)C(=O)N[C@@H](CCC(N)=O)C(N)=O)NC(=O)[C@H](CCC(N)=O)NC(=O)[C@H](Cc4ccccc4)NC(=O)[C@H](C)NC(=O)[C@H](C)NC(=O)[C@H](CN(CC)CC(=O)O)NC(=O)[C@H](CC(=O)O)NC3=O)NC1=O)CCCN2C(C)=O (stereo partly drawn) [I-608] ... 2.5
CC[C@H](C)[C@@H]1NC(=O)[C@H](CC(=O)O)NC(=O)[C@]2(CC=CCCCC3(CCCC=CCCCCCC[C@@](C)(C(=O)N[C@@H](Cc4ccccc4)C(=O)N[C@@H](Cc4csc5ccccc45)C(=O)N[C@@H](CCC(N)=O)C(N)=O)NC(=O)[C@H](CCC(N)=O)NC(=O)[C@H](Cc4ccccc4)NC(=O)[C@H](C)NC(=O)[C@H](C)NC(=O)[C@H](CN(CC(=O)O)CC(F)(F)F)NC(=O)[C@H](CC(=O)O)NC3=O)NC1=O)CCCN2C(C)=O (stereo partly drawn) [I-610] ... 2.6

Look up logD of CC(=O)N1CCC[C@]12CC=CCCCC1(CCCC=CCCCOC(=O)N3CC[C@@](C(=O)N[C@@H](Cc4ccsc4)C(=O)N[C@@H](Cc4csc5ccccc45)C(=O)N[C@@H](CCC(N)=O)C(N)=O)(C3)NC(=O)[C@H](CC(N)=O)NC(=O)[C@H](Cc3ccccc3)NC(=O)[C@H](C)NC(=O)[C@H](C)NC(=O)[C@H](CC(=O)O)NC(=O)[C@H](CC(=O)O)NC1=O)NC(=O)[C@H](CC(C)(C)C)NC(=O)[C@H](CC(=O)O)NC2=O (stereo partly drawn) [I-686] and report it.
2.0

---

EXPERIMENTAL_TARGET: full-length beta-Catenin (Uniprot ID P35222) (Homo sapiens)
Construct: 10 nM full-length beta-Catenin (Uniprot ID P35222)
MEASUREMENT_NOTES: Fluorescence polarization IC50 (beta-catenin / 5FAM-TCF4 10-53 competition)
Type: binding
CONDITION_DETAILS: read-out: beta-Catenin FP IC50
Lab note: anything with IC50 below 30 nM is marked true (1); values at 30 nM or higher are marked false (0).

Solved entries (count: 4):
CC(=O)N1CCC[C@]12CC=CCCCC1(CCCC=CCCCOC(=O)N3CC[C@@](C(=O)N[C@@H](Cc4ccccc4Cl)C(=O)N[C@@H](Cc4csc5ccccc45)C(=O)N[C@@H](C(N)=O)[C@H](C)O)(C3)NC(=O)[C@H](Cc3ccccc3)NC(=O)[C@H](Cc3ccccc3)NC(=O)[C@H](C)NC(=O)[C@H](C)NC(=O)[C@H](CC(=O)O)NC(=O)[C@H](CC(=O)O)NC1=O)NC(=O)[C@H](CC(C)(C)C)NC(=O)[C@H](CC(=O)O)NC2=O (stereo partly drawn) [I-1034] ... true (1)
CC(=O)N1CCC[C@]12CC=CCCCC1(CCCC=CCCCOC(=O)N3CC[C@@](C(=O)N[C@@H](Cc4ccccc4Cl)C(=O)N[C@@H](Cc4csc5ccccc45)C(=O)N[C@@H](CCC(N)=O)C(N)=O)(C3)NC(=O)[C@H](CC(C)C)NC(=O)[C@H](Cc3ccccc3)NC(=O)[C@H](C)NC(=O)[C@H](C)NC(=O)[C@H](CC(=O)O)NC(=O)[C@H](CC(=O)O)NC1=O)NC(=O)[C@H](CC1CCCCC1)NC(=O)[C@H](CC(=O)O)NC2=O (stereo partly drawn) [I-1076] ... false (0)
CC(=O)N1CCC[C@]12CC=CCCCC1(CCCC=CCCCOC(=O)N3CC[C@@](C(=O)N[C@@H](Cc4ccccc4Cl)C(=O)N[C@@H](Cc4csc5ccccc45)C(=O)N[C@@H](C(N)=O)[C@H](C)O)(C3)NC(=O)[C@H](CO)NC(=O)[C@H](Cc3ccccc3)NC(=O)[C@H](C)NC(=O)[C@H](C)NC(=O)[C@H](CCC(=O)O)NC(=O)[C@H](CC(=O)O)NC1=O)NC(=O)[C@H](CC(C)(C)C)NC(=O)[C@H](CC(=O)O)NC2=O (stereo partly drawn) [I-1036] ... true (1)
CC(=O)N1CCC[C@]12CC=CCCCC1(CCCC=CCCCOC(=O)N3CC[C@@](C(=O)N[C@@H](Cc4ccsc4)C(=O)N[C@@H](Cc4csc5ccccc45)C(=O)N[C@@H](CCC(N)=O)C(N)=O)(C3)NC(=O)[C@H](CC(N)=O)NC(=O)[C@H](Cc3ccccc3)NC(=O)[C@H](CCCCNC(=O)c3ccc(CN(C)C)cc3)NC(=O)[C@H](C)NC(=O)[C@H](CC(=O)O)NC(=O)[C@H](CC(=O)O)NC1=O)NC(=O)[C@H](CC(C)(C)C)NC(=O)[C@H](CC(=O)O)NC2=O (stereo partly drawn) [I-891] ... true (1)

Does the reported IC50 of CC(=O)N1CCC[C@]12CC=CCCCC1(CCCC=CCCCOC(=O)N3CC[C@@](C(=O)N[C@@H](Cc4ccsc4)C(=O)N[C@@H](Cc4csc5ccccc45)C(=O)N[C@@H](CO)C(N)=O)(C3)NC(=O)[C@H](Cc3ccccc3)NC(=O)[C@H](Cc3ccccc3)NC(=O)[C@H](C)NC(=O)[C@H](C)NC(=O)[C@H](CN(CC(=O)O)CC(F)(F)F)NC(=O)[C@H](CC(=O)O)NC1=O)NC(=O)[C@H](CC(C)(C)C)NC(=O)[C@H](CC(=O)O)NC2=O (stereo partly drawn) [I-962] stay below 30 nM?
false (0)

Here's an entry: CCN(CC(=O)O)C[C@@H]1NC(=O)[C@H](CC(=O)O)NC(=O)C2(CCCC=CCCCOC(=O)N3CC[C@@](C(=O)N[C@@H](Cc4ccsc4)C(=O)N[C@@H](Cc4csc5ccccc45)C(=O)N[C@@H](CCC(N)=O)C(N)=O)(C3)NC(=O)[C@H](Cc3ccccc3)NC(=O)[C@H](Cc3ccccc3)NC(=O)[C@H](C)NC(=O)[C@H](C)NC1=O)CCCC=CC[C@]1(CCCN1C(C)=O)C(=O)N[C@@H](CC(=O)O)C(=O)N[C@@H](CC(C)(C)C)C(=O)N2 (stereo partly drawn) [I-971] . Is its IC50 below 30 nM?
false (0)

I'd appreciate it if you could check whether CC(=O)N1CCC[C@]12CC=CCCCC1(CCCC=CCCCOC(=O)N3CC[C@@](C(=O)N[C@@H](Cc4ccccc4Cl)C(=O)N[C@@H](Cc4csc5ccccc45)C(=O)N[C@@H](CCC(N)=O)C(N)=O)(C3)NC(=O)[C@H](CC(N)=O)NC(=O)[C@H](Cc3ccccc3)NC(=O)[C@H](C)NC(=O)[C@H](C)NC(=O)[C@H](CC(=O)O)NC(=O)[C@H](CC(=O)O)NC1=O)NC(=O)[C@H](Cc1ccccc1)NC(=O)[C@H](CC(=O)O)NC2=O (stereo partly drawn) [I-1041] has IC50 smaller than 30 nM.
true (1)

Say whether its IC50 is strictly beneath 30 nM. Entry: CC(=O)N1CCC[C@]12CC=CCCCC1(CCCC=CCCCOC(=O)N3CC[C@@](C(=O)N[C@@H](Cc4cccc(Cl)c4)C(=O)N[C@@H](Cc4csc5ccccc45)C(=O)N[C@@H](CCC(N)=O)C(N)=O)(C3)NC(=O)[C@H](CC(N)=O)NC(=O)[C@H](Cc3ccccc3)NC(=O)[C@H](C)NC(=O)[C@H](C)NC(=O)[C@H](CN(CC(=O)O)CC(F)(F)F)NC(=O)[C@H](CC(=O)O)NC1=O)NC(=O)[C@H](CC(C)(C)C)NC(=O)[C@H](CC(=O)O)NC2=O (stereo partly drawn) [I-926]
false (0)

I'd appreciate it if you could check whether CC(=O)N1CCC[C@]12CC=CCCCC1(CCCC=CCCCOC(=O)N3CC[C@@](C(=O)N[C@@H](Cc4ccsc4)C(=O)N[C@@H](Cc4csc5ccccc45)C(=O)N[C@@H](CC(C)C)C(N)=O)(C3)NC(=O)[C@H](CC(N)=O)NC(=O)[C@H](Cc3ccccc3)NC(=O)[C@H](C)NC(=O)[C@H](C)NC(=O)[C@H](CN(CC(=O)O)CC(F)(F)F)NC(=O)[C@H](CC(=O)O)NC1=O)NC(=O)[C@H](CC(C)(C)C)NC(=O)[C@H](CC(=O)O)NC2=O (stereo partly drawn) [I-946] has IC50 smaller than 30 nM.
false (0)

---

EXPERIMENTAL_TARGET: full-length beta-Catenin (Uniprot ID P35222) (Homo sapiens)
Construct: 10 nM full-length beta-Catenin (Uniprot ID P35222)
Sequence (P35222 1-781): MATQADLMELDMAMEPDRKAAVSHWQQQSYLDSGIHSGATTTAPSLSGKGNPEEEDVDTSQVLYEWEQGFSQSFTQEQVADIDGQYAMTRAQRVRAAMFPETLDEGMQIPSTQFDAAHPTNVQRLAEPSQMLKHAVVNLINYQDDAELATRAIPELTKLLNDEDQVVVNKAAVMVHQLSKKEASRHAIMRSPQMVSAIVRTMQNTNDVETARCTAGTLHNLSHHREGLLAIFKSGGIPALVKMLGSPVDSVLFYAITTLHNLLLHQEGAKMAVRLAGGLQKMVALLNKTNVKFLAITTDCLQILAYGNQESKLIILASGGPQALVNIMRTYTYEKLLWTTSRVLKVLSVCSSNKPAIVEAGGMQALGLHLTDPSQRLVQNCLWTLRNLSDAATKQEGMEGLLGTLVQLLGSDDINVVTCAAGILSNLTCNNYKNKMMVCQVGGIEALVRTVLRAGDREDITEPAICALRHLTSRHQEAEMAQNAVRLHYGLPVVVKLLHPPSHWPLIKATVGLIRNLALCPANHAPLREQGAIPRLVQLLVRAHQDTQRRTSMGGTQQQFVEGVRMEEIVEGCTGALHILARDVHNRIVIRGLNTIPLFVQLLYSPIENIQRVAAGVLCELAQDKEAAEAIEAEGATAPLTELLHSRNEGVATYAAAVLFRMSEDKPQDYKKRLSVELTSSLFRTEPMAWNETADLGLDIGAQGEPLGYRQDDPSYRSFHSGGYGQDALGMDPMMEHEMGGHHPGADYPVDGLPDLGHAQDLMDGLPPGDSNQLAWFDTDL
MEASUREMENT_NOTES: Fluorescence polarization IC50 (beta-catenin / 5FAM-TCF4 10-53 competition)
Type: binding
CONDITION_DETAILS: read-out: FP EC50
ENDPOINT: IC50 (nM)
// note: answer is a bare numeric in nM

Illustrative cases are given below, each with its answer.
CC(=O)N1CCC[C@]12CC=CCCCC1(CCCC=CCCCCCC[C@@](C)(C(=O)N[C@@H](Cc3ccccc3)C(=O)N[C@@H](Cc3csc4ccccc34)C(=O)N[C@@H](CCC(N)=O)C(N)=O)NC(=O)[C@H](CC(N)=O)NC(=O)[C@H](Cc3ccccc3)NC(=O)[C@H](C)NC(=O)[C@H](C)NC(=O)[C@H](CCC(=O)O)NC(=O)[C@H](CC(=O)O)NC1=O)NC(=O)[C@H](C)NC(=O)[C@H](CC(=O)O)NC2=O (stereo partly drawn) [I-424] ... 170
CC[C@H](C)[C@@H]1NC(=O)[C@H](CC(=O)O)NC(=O)[C@]2(CC=CCCCC3(CCCC=CCCCCCC[C@@](C)(C(=O)N[C@@H](Cc4ccccc4)C(=O)N[C@@H](Cc4csc5ccccc45)C(=O)N[C@H](C(N)=O)[C@@H](C)O)NC(=O)[C@H](CCC(N)=O)NC(=O)[C@H](Cc4ccccc4)NC(=O)[C@H](C)NC(=O)[C@H](C)NC(=O)[C@H](CCC(=O)O)NC(=O)[C@H](CC(=O)O)NC3=O)NC1=O)CCCN2C(C)=O (stereo partly drawn) [I-642] ... 118

Next molecule, please.
Give measured IC50 for CC[C@H](C)[C@@H]1NC(=O)[C@H](CC(=O)O)NC(=O)[C@]2(CC=CCCCC3(CCCC=CCCCCCC[C@@](C)(C(=O)N[C@@H](Cc4ccccc4)C(=O)N[C@@H](Cc4csc5ccccc45)C(=O)N[C@@H](CCC(N)=O)C(N)=O)NC(=O)[C@H](CCC(N)=O)NC(=O)[C@H](Cc4ccccc4)NC(=O)[C@H](C)NC(=O)[C@H](C)NC(=O)[C@H](CCC(=O)O)NC(=O)[C@H](CC(=O)O)NC3=O)NC1=O)CCCN2C(=O)Cc1ccccc1 (stereo partly drawn) [I-601] (full-length beta-Catenin (Uniprot ID P35222) (Homo sapiens)).
419

Provenance of the data: patent US20240116985A1
